Overview of reported absolute EC50 for viability across a group of compounds:
system: BMSC (primary human bone marrow mesenchymal stromal cells); experiment: absolute EC50 for viability; higher = less sensitive

compound	experimental-system	absolute EC50 for viability
O=C(O)CCCCC(CCSCc1ccccc1)SCc1ccccc1 (stereo unspecified) [CPI-613]	BMSC (primary human bone marrow mesenchymal stromal cells)	> 10 µM
CCn1c(C(=O)N(C2CC2)C2CC2)cc2c3c(ncn3C)c(Nc3cc(C)n(C)n3)nc21	BMSC (primary human bone marrow mesenchymal stromal cells)	> 10 µM
COc1cc([C@@H]2c3cc4c(cc3[C@@H](O[C@@H]3O[C@@H]5CO[C@@H](c6cccs6)O[C@H]5[C@H](O)[C@H]3O)[C@H]3COC(=O)[C@H]23)OCO4)cc(OC)c1O [Teniposide]	BMSC (primary human bone marrow mesenchymal stromal cells)	> 10 µM
Cc1cn(-c2cc(NC(=O)c3ccc(C)c(Nc4nccc(-c5cnccn5)n4)c3)cc(C(F)(F)F)c2)cn1 [Radotinib]	BMSC (primary human bone marrow mesenchymal stromal cells)	> 10 µM

Lab entry: BMSC (primary human bone marrow mesenchymal stromal cells) assay, compound CON(C)C(=O)N1N=C(c2cc(F)ccc2F)S[C@@]1(CCCN)c1ccccc1 [Filanesib] , absolute EC50 for viability = > 1 µM

Lab entry: BMSC (primary human bone marrow mesenchymal stromal cells) assay, compound CNC(=O)[C@@H](NC(=O)[C@H](CC(C)C)[C@H](O)C(=O)NO)C(C)(C)C [Marimastat] , absolute EC50 for viability = > 10 µM

Lab entry: BMSC (primary human bone marrow mesenchymal stromal cells) assay, compound CNC(=O)c1ccc2cc([C@@]3(O)CCn4cncc43)ccc2c1 [Orteronel] , absolute EC50 for viability = > 10 µM

###

test system: BMSC (primary human bone marrow mesenchymal stromal cells); assay: absolute EC50 for viability; higher = less sensitive
Overview of reported absolute EC50 for viability across a group of compounds:

Consider the following illustrative entries.
compound	absolute EC50 for viability
O=C(/C=C\n1cnc(-c2cc(C(F)(F)F)cc(C(F)(F)F)c2)n1)NNc1cnccn1 [Selinexor]	> 10 µM
O=C(O)c1ccc(CN2CCC(CN[C@@H]3C[C@H]3c3ccccc3)CC2)cc1	> 100 µM
CN1CCN(CCOc2cc(OC3CCOCC3)c3c(Nc4c(Cl)ccc5c4OCO5)ncnc3c2)CC1	> 10 µM

absolute EC50 for viability for `COc1cc(C)[nH]c(=O)c1CNC(=O)c1c(C)n([C@H](C)C2CCOCC2)c2ccccc12` is > 10 µM

absolute EC50 for viability for CC(C)(C)NC(=O)[C@H]1CC[C@H]2[C@@H]3CC[C@H]4NC(=O)C=C[C@]4(C)[C@H]3CC[C@]12C [Finasteride] is > 10 µM

###

system: BMSC (primary human bone marrow mesenchymal stromal cells); assay: absolute EC50 for viability; higher = less sensitive
assay-readout: absolute EC50 for viability (µM)
# unit: µM | format: bare number

Consider the following illustrative entries.
compound	absolute EC50 for viability [µM]
COc1cc2c(cc1OC(C)C)[C@H](c1ccc(Cl)cc1)N(c1ccc(N(C)C[C@H]3CC[C@H](N4CCN(C)C(=O)C4)CC3)cc1)C(=O)C2 [NVP-CGM097]	4.61
COC(=O)c1ccc2c(C(=Nc3ccc(N(C)C(=O)CN4CCN(C)CC4)cc3)c3ccccc3)c(O)[nH]c2c1 [Nintedanib]	2.56

Now examine the next entry.
absolute EC50 for viability for COc1ncc(-c2ccc3nccc(-c4ccnnc4)c3c2)cc1NS(=O)(=O)c1ccc(F)cc1F [Omipalisib] is 0.0979

###

system: BMSC (primary human bone marrow mesenchymal stromal cells); test: absolute EC50 for viability; higher = less sensitive
Overview of reported absolute EC50 for viability across a group of compounds:

Consider the following illustrative entries.
Oc1ncnc2[nH]ncc12 > 10 µM
Cn1cnc2c(F)c(Nc3ccc(Br)cc3Cl)c(C(=O)NOCCO)cc21 > 10 µM

Lab entry: BMSC (primary human bone marrow mesenchymal stromal cells) assay, compound `CO[C@@]12[C@H](COC(N)=O)C3=C(C(=O)C(C)=C(N)C3=O)N1C[C@@H]1N[C@@H]12` , absolute EC50 for viability = > 10 µM

Lab entry: BMSC (primary human bone marrow mesenchymal stromal cells) assay, compound `O=C(CCNC(=O)c1ccc(OC(F)(F)F)cc1)N[C@@H]1CCCc2ccccc21` , absolute EC50 for viability = > 50 µM

Lab entry: BMSC (primary human bone marrow mesenchymal stromal cells) assay, compound `NC[C@@](O)(c1ccc(Cl)cc1)c1ccc(-c2cn[nH]c2)cc1` , absolute EC50 for viability = > 10 µM

###

tested on: BMSC (primary human bone marrow mesenchymal stromal cells); assay: absolute EC50 for viability; higher = less sensitive
assay-readout: absolute EC50 for viability

compound	assay-readout	value-measured
N#CC(c1ccnc(OCc2ccc(CN3CCOCC3)cc2)n1)c1nc2ccccc2s1 (centres undefined) [Bentamapimod]	absolute EC50 for viability	> 10000 nM

Lab entry: BMSC (primary human bone marrow mesenchymal stromal cells) assay, compound CN[C@@H](C)C(=O)N[C@H]1CN(C(=O)CC(C)C)CC[C@H]2CC[C@@H](C(=O)NC(c3ccccc3)c3ccccc3)N2C1=O [AT-406] , absolute EC50 for viability = > 10000 nM

Lab entry: BMSC (primary human bone marrow mesenchymal stromal cells) assay, compound CCNCCS(=O)(=O)NC[C@@]1(c2ccccc2)SC(NC(=O)C(C)(C)C)=NN1C(=O)C(C)(C)C [Litronesib] , absolute EC50 for viability = > 1000 nM

Lab entry: BMSC (primary human bone marrow mesenchymal stromal cells) assay, compound CN1CCN(c2ccc(C(=O)Nc3n[nH]c4ccc(Cc5cc(F)cc(F)c5)cc34)c(NC3CCOCC3)c2)CC1 [Entrectinib] , absolute EC50 for viability = > 1000 nM

Lab entry: BMSC (primary human bone marrow mesenchymal stromal cells) assay, compound COc1cc(Nc2ncc(F)c(Nc3ccc4c(n3)NC(=O)C(C)(C)O4)n2)cc(OC)c1OC [Tamatinib] , absolute EC50 for viability = > 10000 nM

Lab entry: BMSC (primary human bone marrow mesenchymal stromal cells) assay, compound C[C@@H]1COCCN1c1cc(C2([S@](C)(=N)=O)CC2)nc(-c2cc[nH]c3nccc2-3)n1 [AZD6738] , absolute EC50 for viability = > 25000 nM

Lab entry: BMSC (primary human bone marrow mesenchymal stromal cells) assay, compound COCCNCc1ccc(-c2cc3nccc(Oc4ccc(NC(=O)C5(C(=O)Nc6ccc(F)cc6)CC5)cc4F)c3s2)nc1 [Sitravatinib] , absolute EC50 for viability = > 2500 nM

Lab entry: BMSC (primary human bone marrow mesenchymal stromal cells) assay, compound COc1cccc2c1C(=O)c1c(O)c3c(c(O)c1C2=O)C[C@@](O)(/C(CO)=N/NC(=O)CCCCCN1C(=O)C=CC1=O)C[C@@H]3O[C@H]1C[C@H](N)[C@H](O)[C@H](C)O1 [Aldoxorubicin] , absolute EC50 for viability = 944 nM

Lab entry: BMSC (primary human bone marrow mesenchymal stromal cells) assay, compound CCS(=O)(=O)c1cccc(-c2cc(C(=O)NC3CCN(C)CC3)c(C)c3[nH]c4ncc(C)cc4c23)c1 [TAK-901] , absolute EC50 for viability = 265 nM

Lab entry: BMSC (primary human bone marrow mesenchymal stromal cells) assay, compound COC(=O)N[C@@H](C)CNc1nccc(-c2cn(C(C)C)nc2-c2cc(Cl)cc(NS(C)(=O)=O)c2F)n1 [Encorafenib] , absolute EC50 for viability = > 1000 nM

Lab entry: BMSC (primary human bone marrow mesenchymal stromal cells) assay, compound OC[C@H]1O[C@@H](n2cnc3c2N=CNC[C@H]3O)C[C@@H]1O [Pentostatin] , absolute EC50 for viability = > 10000 nM

Lab entry: BMSC (primary human bone marrow mesenchymal stromal cells) assay, compound Oc1nc(-c2ccc(C(F)(F)F)cc2)nc2c1CSCC2 [XAV-939] , absolute EC50 for viability = > 10000 nM

Lab entry: BMSC (primary human bone marrow mesenchymal stromal cells) assay, compound CN(C)Cc1c(C(=O)NCCOc2ccc(C(=O)NO)cc2)oc2ccccc12 [Abexinostat] , absolute EC50 for viability = 1280 nM

Lab entry: BMSC (primary human bone marrow mesenchymal stromal cells) assay, compound Nc1ccccc1NC(=O)c1ccc(CNc2nccc(-c3cccnc3)n2)cc1 [Mocetinostat] , absolute EC50 for viability = > 10000 nM

###

tested on: BMSC (primary human bone marrow mesenchymal stromal cells); experiment: absolute EC50 for viability; higher = less sensitive
Overview of reported absolute EC50 for viability across a group of compounds:

Consider the following illustrative entries.
compound	absolute EC50 for viability
Cc1cc(C(C)Nc2ccccc2)c2nc(N3CCOCC3)cc(=O)n2c1 (configuration not stated)	> 10 µM
NC(=O)NO [Hydroxyurea]	> 1000 µM
C[C@@H]1CN(Cc2ccc(F)cc2)[C@@H](C)CN1C(=O)c1cc2c(C(=O)C(=O)N(C)C)cn(C)c2cc1Cl	> 10 µM
Cc1ccc(=O)n(-c2ccccc2)c1	> 10 µM
Nc1ccn([C@@H]2O[C@H](CO)[C@@H](O)[C@@H]2O)c(=O)n1	> 10 µM

absolute EC50 for viability for Nc1cccc2c1CN(C1CCC(=O)NC1=O)C2=O (configuration not stated) [Lenalidomide] is > 100 µM

absolute EC50 for viability for `C[C@@H](C(=O)O)c1ccc(-c2ccccc2)c(F)c1` is > 10 µM

absolute EC50 for viability for `C[C@H]1Oc2cc(cnc2N)-c2c(nn(C)c2C#N)CN(C)C(=O)c2ccc(F)cc21` is > 1 µM

absolute EC50 for viability for `CC[C@@H]1[C@H](F)C(=O)N[C@@H]1COc1nccc2cc(C(N)=O)c(OC)cc12` is > 10 µM

absolute EC50 for viability for `C[C@H](Nc1ncnc2nc[nH]c12)c1cc2cccc(Cl)c2c(=O)n1-c1ccccc1` is > 0.5 µM

absolute EC50 for viability for `S=c1[nH]cnc2nc[nH]c12` is > 10 µM

absolute EC50 for viability for `Nc1nc2cc(-c3ccc4ncc(C(=O)N5CCOCC5)n4c3)ccc2o1` is > 10 µM

absolute EC50 for viability for `C[C@@H](Oc1cc(-n2cnc3ccc(CN4CCN(C)CC4)cc32)sc1C(N)=O)c1ccccc1C(F)(F)F` is 1.89 µM

absolute EC50 for viability for `CCn1c(-c2nonc2N)nc2c(C#CC(C)(C)O)ncc(OC[C@H]3CCCNC3)c21` is > 10 µM

absolute EC50 for viability for CCC(C)n1ncn(-c2ccc(N3CCN(c4ccc(OCC5COC(Cn6cncn6)(c6ccc(Cl)cc6Cl)O5)cc4)CC3)cc2)c1=O (configuration not stated) is > 5 µM

absolute EC50 for viability for `O=C(/C=C/c1cccc(S(=O)(=O)Nc2ccccc2)c1)NO` is 2.23 µM

absolute EC50 for viability for `O=C(O)c1ccc2c(c1)nc(Nc1cccc(Cl)c1)c1ccncc12` is > 10 µM

absolute EC50 for viability for `CC1(C)CC[C@]2(NC(=O)C(C)(F)F)CC[C@]3(C)[C@H](C(=O)C=C4[C@@]5(C)C=C(C#N)C(=O)C(C)(C)[C@@H]5CC[C@]43C)[C@@H]2C1` is 3.77 µM

absolute EC50 for viability for COc1ccc(C[C@H](NC(=O)[C@H](C)NC(=O)CN2CCOCC2)C(=O)N[C@@H](Cc2ccccc2)C(=O)C2(C)CO2)cc1 (stereo in doubt) is 0.391 µM

absolute EC50 for viability for `CO[C@H]1C[C@@H]2CC[C@@H](C)[C@@](O)(O2)C(=O)C(=O)N2CCCC[C@H]2C(=O)O[C@H]([C@H](C)C[C@@H]2CC[C@@H](O)[C@H](OC)C2)CC(=O)[C@H](C)/C=C(\C)[C@@H](O)[C@@H](OC)C(=O)[C@H](C)C[C@H](C)/C=C/C=C/C=C/1C` is > 0.1 µM

absolute EC50 for viability for `CONC(=O)c1ccccc1Nc1cc(Nc2cc(C)nn2C(C)C)ncc1Cl` is > 1 µM

absolute EC50 for viability for NC(=O)c1cnc2[nH]ccc2c1NC1C2CC3CC1CC(O)(C3)C2 (configuration not stated) is > 2.5 µM
